Recorded values, source patent US6207816.

Target: KGF (hKGF) (Homo sapiens) (UniProt P21781)
Sequence: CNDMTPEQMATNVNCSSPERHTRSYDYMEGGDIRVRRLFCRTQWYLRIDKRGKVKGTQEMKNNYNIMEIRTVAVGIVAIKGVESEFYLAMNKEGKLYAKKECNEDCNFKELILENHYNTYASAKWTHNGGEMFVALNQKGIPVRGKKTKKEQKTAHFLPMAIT
Test: competition
Details: 2'-F pyrimidines; PC-3 cells; 20 nM on NIH3T3/FGFR-2
Endpoint Name: pKi
One number for each entry, as −log10 of the molar value.

Lab note: need pKi for GGGAGGACGAUGCGGNGACUGAUUUUUCCUUGNBCAGUGUAAUUUCCUGGCUGCCCCAGACGACUCGCCCGA [38F (K38F)] on KGF (hKGF) (Homo sapiens) (UniProt P21781), anyone have it? 9.66

====

Molecular target: KGF (hKGF) (Homo sapiens) (UniProt P21781)
Sequence: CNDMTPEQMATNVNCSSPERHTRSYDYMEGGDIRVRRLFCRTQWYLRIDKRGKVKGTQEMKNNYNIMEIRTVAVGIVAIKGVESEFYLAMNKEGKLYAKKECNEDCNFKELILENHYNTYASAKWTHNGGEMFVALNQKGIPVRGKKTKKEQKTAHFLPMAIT
Assay: competition
Settings: 2'-F pyrimidines; PC-3 assay
Endpoint Name: IC50

{"Monomer Sequence": "GGGAGGACGAUGCGGGGACAAWYAGCGGUGUCUUUUCAUUUNKAUCCUCCGACRUCCCAGACGACUCGCCCGA [56F (K56F)]", "IC50": "1 nM"}

Then there is this sequence:
Quick one: IC50 of GGGAGGACGAUGCGGNGACUGAUUUUUCCUUGNBCAGUGUAAUUUCCUGGCUGCCCCAGACGACUCGCCCGA [38F (K38F)] ? 0.6 nM

====

Target: KGF (hKGF) (Homo sapiens) (UniProt P21781)
Sequence: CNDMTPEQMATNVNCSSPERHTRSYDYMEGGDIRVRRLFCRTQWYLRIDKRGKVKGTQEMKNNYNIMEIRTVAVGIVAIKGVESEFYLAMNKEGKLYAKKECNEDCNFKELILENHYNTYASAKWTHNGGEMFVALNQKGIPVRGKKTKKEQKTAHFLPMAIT
Experiment: filter
Details: 2'-F pyrimidines; biphasic, 32% high affinity; Kd2 3.00 nM
Endpoint Name: pKd
Answers are plain numbers, as −log10 of the molar value.

Quick one: pKd of GGGAGGACGAUGCGGGGACAAWYAGCGGUGUCUUUUCAUUUNKAUCCUCCGACRUCCCAGACGACUCGCCCGA [56F] ? 10.15

====

Molecular target: KGF (hKGF) (Homo sapiens) (UniProt P21781)
Sequence: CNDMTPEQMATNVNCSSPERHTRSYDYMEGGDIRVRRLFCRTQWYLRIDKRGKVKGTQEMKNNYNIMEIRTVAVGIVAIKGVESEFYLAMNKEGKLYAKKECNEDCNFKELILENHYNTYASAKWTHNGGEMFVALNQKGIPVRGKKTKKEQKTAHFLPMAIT
Experiment: filter
Details: 2'-F pyrimidines; DPBS, 37 C
Endpoint Name: Kd (pM)
Answers are plain numbers, in pM.

{"Monomer Sequence": "GGGAGGACGAUGCGGNGACUGAUUUUUCCUUGNBCAGUGUAAUUUCCUGGCUGCCCCAGACGACUCGCCCGA [38F]", "Endpoint Name": "Kd", "Unit Info": "pM", "Val": 330}

Then there is this sequence:
Quick one: Kd of GGGAGGACGAUGCGGGAAUUAACAGGGCCAGAAUUCUCAUCUNNCUUCCCGUGACCCAGACGACUCGCCCGA [12F] ? 1380

====

Target: KGF (hKGF) (Homo sapiens) (UniProt P21781)
Sequence: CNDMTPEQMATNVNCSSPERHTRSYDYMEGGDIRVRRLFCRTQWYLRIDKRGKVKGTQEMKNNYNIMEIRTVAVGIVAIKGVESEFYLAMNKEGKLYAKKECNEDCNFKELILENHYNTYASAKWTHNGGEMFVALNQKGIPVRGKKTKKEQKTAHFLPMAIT
Test: filter
Details: 2'-F pyrimidines; biphasic, high affinity 49%; Kd2 3.39 nM
Endpoint Name: pKd
Answers are plain numbers, as −log10 of the molar value.

Quick one: pKd of GGGAGGACGAUGCGGGAAUUCCCAGCGCUUGACUGAUACAAACNUUCCCGUGCCGCAGACGACUCGCCCGA [16F] ? 9.08
